- assay.details: qHTS Assay for Identifying Gametocytocidal Compounds (AID 743244);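 further: on the % scale 0 is the no-effect control and ±100 the full control effect; actives lower the fluorescent signal which means gametocytes are killed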
- particulars: P. falciparum 3D7 stage III-V gametocytes, alamarBlue, 72 h; stronger effect = lower value
Inconclusive results are not listed.
reported.property: max response (%)
Answers are plain numbers, in %.

Here is how some compounds turned out for max response.
Inquiry: Recorded max response of `Cc1nc(N)sc1-c1ccnc(Nc2ccc(N3CCOCC3)cc2)n1` , please.
Reply text: -1.3

Inquiry: Also `N#Cc1ccc(NC(=O)Nc2ccccc2Br)c2n[nH]nc12` ?
Reply text: 26.2

Inquiry: `O=C1C(Cl)=C(NCCN2CCOCC2)C(=O)c2ncccc21` , same question.
Reply text: -156

Inquiry: Subsequent entry: `O=C(O)c1c(Cl)c(Cl)c(Cl)c(Cl)c1-c1c2cc(I)c(=O)c(I)c-2oc2c(I)c(O)c(I)cc12`
Reply text: -8.78

Inquiry: What would you report for `CC(=O)O[C@]1(C(C)=O)CC[C@H]2[C@@H]3C=C(Cl)C4=CC(=O)[C@@H]5C[C@@H]5[C@]4(C)[C@H]3CC[C@@]21C` ?
Reply text: 5.83

Inquiry: Next: `O=c1cc(-c2ccc(O)cc2)oc2cc(O)cc(O)c12`
Reply text: 0.431

From here, focus on the item given below.
Inquiry: Would you kindly share the measured max response for `CC(C)(C)COc1ccc(-n2cc(C(=O)O)cn2)cc1C#N` ?
Reply text: 54.6

---

- assay.details: qHTS of pediatric cancer cell lines to identify multiple opportunities for drug repurposing: Primary screen for NB1643 cells (AID 1347099); further: nearly all actives have a fitted effect of over 50% in size
- particulars: NB1643 neuroblastoma viability, CellTiter-Glo luminescence, 48 h; series mostly up to 46 µM
Records with an inconclusive call do not appear. Calls of active or inactive are those of the source. Calls follow the shape of the dose curve; as a rule, active = well fitted cell-killing curve with a large enough effect; inconclusive = small, poorly fitted or top-dose-only effect; inactive = no such curve, though single readings can be large or run the other way.
Field 'call' accepts active, inactive

Worked set:
Inquiry: Please share the test call associated with `O=C1NC(=O)C(=Cc2ccc(-c3ccc(F)cc3)o2)S1` .
Reply text: active

Inquiry: Check `Cc1ccc(C(=O)Nc2cccc(C(F)(F)F)c2)cc1Nc1nc(-c2cccnc2)nc2c1cnn2C` too.
Reply text: active

Inquiry: Lookup `NS(=O)(=O)c1cccc2c1C(=O)c1cccc(O)c1C2=O`
Reply text: active

Inquiry: One more compound: `O=c1c(O)c(-c2ccc(O)cc2)oc2cc(O)cc(O)c12`
Reply text: active

Inquiry: What about `C[C@H](NC(=O)c1sccc1OCc1ccc(Cl)cc1)c1ccccc1` ?
Reply text: active

Could you now look at the following compound, please?
Inquiry: So what was the verdict on `O=c1cc(-c2ccc(O)cc2)oc2cc(O)cc(O)c12` in this test?
Reply text: active

---

- System: WaGa
- assay.details: qHTS assay to identify novel small-molecules to repurpose for Merkel cell carcinoma treatment (AID 1296009); further: nearly all actives have a fitted effect of over 60% in size
- particulars: MCC and control cell lines, CellTiter-Glo viability, 72 h; series mostly up to 46 µM
- Text: MCC is a rare and aggressive neuroendocrine skin cancer with limited treatment options. Approximately 80% of MCCs have the Merkel cell polyomavirus (MCPyV) DNA integrated into the host genome (virus-positive: VP-MCC) and viral oncogenes drive oncogenesis. The remaining MCCs are virus-negative (VN-MCC) and are caused by UV mutagenesis. […] Using cell viability as a readout (CellTiter-Glo assay) we found both overlapping and distinct drugs that can be repurposed for the treatment of VP-MCC and VN-MCC. […]
Inconclusive results are not listed. The source made the active and inactive calls. Calls follow the shape of the dose curve; as a rule, active = well fitted inhibition curve with a large enough effect; inconclusive = small, poorly fitted or top-dose-only effect; inactive = flat fitted curve, though single readings scatter.
Respond only with the outcome that fits, drawn from Yes for active, No for inactive

Inquiry: Any idea what this test logged for `COc1ccc(Cc2ccc(NC(N)=O)cc2)cc1-c1cccc(Cl)c1` ?
Reply text: No

Inquiry: Also check O=c1c(-c2ccc(O)cc2)coc2cc(OC3O[C@H](CO)[C@H](O)[C@H](O)[C@H]3O)cc(O)c12 (stereo not given in full)
Reply text: No

Inquiry: One more compound: `CO[C@H]1C(=O)[C@]2(C)[C@@H](OC)C[C@H]3OC[C@@]3(OC(C)=O)[C@H]2[C@H](OC(=O)c2ccccc2)[C@]2(O)C[C@H](OC(=O)[C@H](O)[C@@H](NC(=O)OC(C)(C)C)c3ccccc3)C(C)=C1C2(C)C`
Reply text: No

Inquiry: Continue with CC(C)(C)c1ccc(C(O)CCCN2CCC(C(O)(c3ccccc3)c3ccccc3)CC2)cc1 (stereo not given)
Reply text: No

Inquiry: Next: `Nc1ncnc2ccccc12`
Reply text: No

Inquiry: Please answer likewise for `CC1(C)CCC[C@@]2(C)[C@@H]1CC[C@@]1(C)OC(=O)C[C@H]21`
Reply text: No

Inquiry: Now consider `CCCCC1C(=O)N(c2ccccc2)N(c2ccccc2)C1=O` and answer again.
Reply text: No

Inquiry: Here is the next compound: `O=c1ccn([C@@H]2O[C@H](CO)[C@H](O)[C@H]2O)c(=O)[nH]1`
Reply text: No

Inquiry: And the next one, `COc1cc2nc(-c3ccc(N4CCN(C)CC4)cc3)nc(NCCN3CCOCC3)c2cc1OC` ?
Reply text: Yes

Inquiry: Request: `C[C@@H]1CCN(C(=O)CC#N)C[C@H]1N(C)c1ncnc2[nH]ccc12`
Reply text: No

Others:
Inquiry: Given `CCN(CC)CCNC(=O)c1ccc(N)cc1` , state the outcome it received in this test.
Reply text: No

Inquiry: How about this compound: `Cc1cccc(Nc2nc(-c3ccncc3)cs2)c1`
Reply text: No

Inquiry: Do the same for `COc1ncc(-c2ccc3nccc(-c4ccnnc4)c3c2)cc1NS(=O)(=O)c1ccc(F)cc1F` please
Reply text: Yes

Inquiry: Can you check `NC(=O)c1cccc2[nH]c(-c3ccc([C@H]4CCCN4)cc3F)nc12` next?
Reply text: Yes

Inquiry: Same again, this time with `COC(=O)N[C@H](C(=O)N1CCC[C@@H]1c1ncc(-c2ccc(-c3ccc(-c4cnc([C@@H]5CCCN5C(=O)[C@@H](NC(=O)OC)C(C)C)[nH]4)cc3)cc2)[nH]1)C(C)C`
Reply text: No
